Molecular target: T1, hu-M-IL1RAP construct, positions S21-T367 (extracellular domain of the membrane form of human IL1RAP) (human, UniProt Q9NPH3 21-367)
T1 construct: Biotinylated when captured on the Biacore chip
T1 sequence: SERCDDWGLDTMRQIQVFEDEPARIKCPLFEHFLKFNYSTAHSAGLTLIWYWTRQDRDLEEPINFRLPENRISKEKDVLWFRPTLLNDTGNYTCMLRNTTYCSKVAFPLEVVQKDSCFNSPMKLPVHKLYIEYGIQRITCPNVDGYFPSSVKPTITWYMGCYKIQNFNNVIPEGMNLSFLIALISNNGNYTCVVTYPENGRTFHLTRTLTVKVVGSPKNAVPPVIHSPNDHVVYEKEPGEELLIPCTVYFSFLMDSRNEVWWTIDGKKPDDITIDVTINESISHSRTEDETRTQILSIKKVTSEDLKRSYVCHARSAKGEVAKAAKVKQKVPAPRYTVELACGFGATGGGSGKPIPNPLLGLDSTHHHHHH
Assay: ELISA, purified mAb
measured attribute: EC50 (pM)
Give just the numeric value; pM need not be written.

Entry 11C5(Hy) (purified mAb from the 11C5 hybridoma) (antibody, V domains shown, Mouse hybridoma mAb; also called 11C5(Hy) mAb; mAb 11C5(Hy)) VH: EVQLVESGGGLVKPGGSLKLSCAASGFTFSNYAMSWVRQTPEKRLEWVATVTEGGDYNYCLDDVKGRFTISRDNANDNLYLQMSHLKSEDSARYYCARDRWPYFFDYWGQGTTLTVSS VL: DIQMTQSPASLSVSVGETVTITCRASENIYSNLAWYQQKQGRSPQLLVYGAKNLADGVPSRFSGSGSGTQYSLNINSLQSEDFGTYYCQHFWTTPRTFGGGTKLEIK needs its EC50 filled in; supply it.
26
